- Experiment Description: chemical genetic growth profiling, strain panel (AID 1159580);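 further: tested at 20 µM; growth read once vehicle control cultures reached saturation at 30 °C; 1 = growth at the plate median or of vehicle wells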
- Stated Conditions: S. cerevisiae deletion strains, growth OD, locus YGL253W, strain hxk2
The campaign covered roughly 5,500 compounds. About 2,000 (36%) were called active. Inconclusive results (about 18%) are left out. No stated cut-off is given here; in the data, active means normalized growth mostly below about 0.91 (no sharp cut-off); inconclusive means no clear call, values can overlap the other calls; inactive means mostly above about 0.92. The list shows a part of the results.
Entry note: the call must match one of active, inactive

Which outcome was assigned to Oc1cccc(O)c1 in this test?
inactive

Which outcome was assigned to CC1(C)CC2C1CC[C@]1(C)CCC3C(C(=O)O)CC(=O)O[C@@]32C1 (some centres not stated) in this test?
inactive

Which outcome was assigned to CCCOc1ccc2nc(NC(=O)OC)[nH]c2c1 in this test?
inactive

Which outcome was assigned to CC(=O)Oc1ccc(C(c2ccc(OC(C)=O)cc2)c2ccccn2)cc1 in this test?
inactive

Which outcome was assigned to Cc1cc(=O)oc2cc(O)cc(O)c12 in this test?
inactive

Which outcome was assigned to CCC(C)[C@H]1O[C@]2(C=C[C@@H]1C)C[C@@H]1C[C@@H](C/C=C(\C)[C@@H](OC3C[C@H](OC)C(O[C@H]4C[C@H](OC)[C@@H](O)[C@H](C)O4)[C@H](C)O3)[C@@H](C)/C=C/C=C3\CO[C@@H]4[C@H](O)C(C)=C[C@@H](C(=O)O1)[C@]34O)O2 (some centres not stated) in this test?
active

Which outcome was assigned to CO[C@H]1CC(O[C@@H]2/C(C)=C/C[C@@H]3C[C@@H](C[C@]4(CC[C@H](C)[C@@H](C5CCCCC5)O4)O3)OC(=O)[C@@H]3C=C(C)/C(=N\O)[C@H]4OC/C(=C\C=C\[C@@H]2C)[C@]43O)O[C@@H](C)C1O (some centres not stated) in this test?
inactive

====

- Experiment Description: chemical genetic growth profiling, strain panel (AID 1159580)
- Stated Conditions: S. cerevisiae deletion strains, growth OD, locus YLR370C, strain arc18, stronger effect = lower value
About 2,000 (36%) of roughly 5,500 compounds were called active. Roughly 18% stayed inconclusive and do not appear here. Some of the results follow.
Measurement Kind: normalized growth
Please reply with the value in numeric form only.

Lab book: normalized growth of COC(=O)c1c(C)c2c(c(C)c1O)OC(=O)c1c(C)c(Cl)c(O)c(Cl)c1O2 noted as 0.958

Lab book: normalized growth of CC(C)CCCC(C)C1CCC2C3CC(=O)[C@H]4C[C@@H](O)CC[C@]4(C)C3CC[C@]12C (stereo not given in full) noted as 1.02

Lab book: normalized growth of CN(C)[C@@H]1C(=O)C(C(=O)NCN2CCCC2)=C(O)[C@@]2(O)C(=O)C3=C(O)c4c(O)cccc4[C@@](C)(O)[C@H]3C[C@@H]12 noted as 1

Lab book: normalized growth of C=C1C[C@]23C[C@@]1(O)CC[C@H]2[C@@]12C=C[C@H](O)[C@@](C)(C(=O)O1)[C@H]2[C@@H]3C(=O)O noted as 1.02

Lab book: normalized growth of CCCOc1ccc2nc(NC(=O)OC)[nH]c2c1 noted as 1.02

Lab book: normalized growth of CC(C)CCCC(C)[C@H]1CCC2C3CC=C4C[C@@H](O)CC[C@]4(C)C3CC[C@@]21C (stereo not given in full) noted as 0.974

Lab book: normalized growth of CC(=O)O[C@@H]1CC2C(C)(C)C(=O)C=C[C@]2(C)C2CC[C@]3(C)C(=CC(=O)O[C@H]3c3ccoc3)[C@@]21C (stereo not given in full) noted as 1.02

Lab book: normalized growth of COc1ccc2cc(CCC(C)=O)ccc2c1 noted as 0.998

Lab book: normalized growth of CC(C)CCCC(C)C1CCC2C3C[C@@H](O)[C@@]4(O)C[C@@H](O)CC[C@]4(C)C3CC[C@]12C (stereo not given in full) noted as 1

Lab book: normalized growth of CC1=CC(=O)c2c(O)cccc2C1=O noted as 0.0568

Lab book: normalized growth of O=P1(N(CCCl)CCCl)NCCCO1 (stereo not given) noted as 1.02

Lab book: normalized growth of CC(C)(C)NC[C@H](O)c1ccc(O)c(CO)c1 noted as 1.02

Lab book: normalized growth of CC(CCc1ccccc1)NCC(O)c1ccc(O)c(C(N)=O)c1 (stereo not given) noted as 1

Lab book: normalized growth of O=C1NC(O)=NC1(c1ccccc1)c1ccccc1 noted as 1.01

Lab book: normalized growth of Cc1cc(=O)[nH]c(=S)[nH]1 noted as 0.973

====

- Experiment Description: chemical genetic growth profiling, strain panel (AID 1159580);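 further: tested at 20 µM; growth read once vehicle control cultures reached saturation at 30 °C; 1 = growth at the plate median or of vehicle wells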
- Stated Conditions: S. cerevisiae deletion strains, growth OD, locus YLR384C, strain iki3, stronger effect = lower value
Among all 5,500 compounds or so, about 2,000 (36%) were called active. Roughly 18% stayed inconclusive and do not appear here. This is one part of the list.
Measurement Kind: normalized growth
Please reply with the value in numeric form only.

Lab book: normalized growth of O=C(O)c1ccccc1 noted as 0.958

Lab book: normalized growth of O=P1(N(CCCl)CCCl)NCCCO1 (stereo not given) noted as 1

Lab book: normalized growth of O=C(O)c1cccnc1 noted as 1.01

Lab book: normalized growth of Cc1nc(N)cc(C[n+]2csc(CCO)c2C)n1 noted as 0.983

Lab book: normalized growth of CC(C)C[C@@H](CN)CC(=O)O noted as 1.02

Lab book: normalized growth of CCCN(CCC)S(=O)(=O)c1ccc(C(=O)O)cc1 noted as 0.983

Lab book: normalized growth of COc1ccc([C@@H]2CC(=O)c3c(O)cc(O[C@@H]4O[C@H](CO[C@H]5O[C@@H](C)[C@H](O)[C@@H](O)[C@H]5O)[C@@H](O)[C@H](O)[C@H]4O)cc3O2)cc1O noted as 0.976

Lab book: normalized growth of CC(CCC(=O)O)[C@H]1CCC2C3CC[C@@H]4C[C@H](O)CC[C@]4(C)C3C=C[C@@]21C (stereo not given in full) noted as 1.03

Lab book: normalized growth of CN[C@@H]1[C@H](O)[C@H](NC)[C@H]2O[C@@]3(O)C(=O)C[C@@H](C)O[C@H]3O[C@@H]2[C@H]1O noted as 1.01

Lab book: normalized growth of C[C@H](CCC(=O)O)[C@H]1CCC2C3C(=O)CC4CC(=O)CC[C@]4(C)C3CC(=O)[C@@]21C (stereo not given in full) noted as 0.976

====

- Experiment Description: chemical genetic growth profiling, strain panel (AID 1159580);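 further: tested at 20 µM; growth read once vehicle control cultures reached saturation at 30 °C; 1 = growth at the plate median or of vehicle wells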
- Stated Conditions: S. cerevisiae deletion strains, growth OD, locus YMR125W, strain sto1, stronger effect = lower value
In all, about 5,500 compounds went through this assay and about 2,000 (36%) were called active. Another 18% or so got no clear call; they are omitted. The list shows a part of the results.
Measurement Kind: normalized growth

Lab book: normalized growth of CC(C)CCCC(C)[C@H]1CCC2C3C(=O)C=C4C[C@@H](O)CC[C@]4(C)C3CC[C@@]21C (some centres undefined) noted as 1.01 (inactive)

Lab book: normalized growth of CC1(C)CC2C1CC[C@]1(C)CCC3C(C(=O)O)CC(=O)O[C@@]32C1 (some centres undefined) noted as 1.06 (inactive)

Lab book: normalized growth of NS(=O)(=O)c1cc2c(cc1Cl)NC(CSCc1ccccc1)=NS2(=O)=O noted as 1.01 (inactive)

Lab book: normalized growth of CNNC noted as 1 (inactive)

====

- Experiment Description: chemical genetic growth profiling, strain panel (AID 1159580);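 further: tested at 20 µM; growth read once vehicle control cultures reached saturation at 30 °C; 1 = growth at the plate median or of vehicle wells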
- Stated Conditions: S. cerevisiae deletion strains, growth OD, locus YJL128C, strain PBS2, stronger effect = lower value
Out of some 5,500 compounds screened, about 2,000 (36%) were called active. Not shown: some 18% with an inconclusive outcome. Some of the results follow.
Assignment: determine reported normalized growth for the given compounds.
Please reply with the value in numeric form only.

Lab book: normalized growth of Cc1ccc(-c2csc(-c3ccncc3)n2)cc1 noted as 0.919

Lab book: normalized growth of Cc1onc(-c2c(Cl)cccc2Cl)c1C(=O)O/N=C(/N)Cc1ccc(C(C)(C)C)cc1 noted as 0.953

Lab book: normalized growth of CC(C)(C)c1cc(C(=O)NNc2cccc(Cl)c2)n(Cc2ccccc2)n1 noted as 0.956

Lab book: normalized growth of COc1c(Br)csc1C(=O)O/N=C(/N)c1cc(C(F)(F)F)cc(C(F)(F)F)c1 noted as 0.956

Lab book: normalized growth of NC(=S)N/N=C1/CCCc2ccccc21 noted as 0.966

Lab book: normalized growth of Brc1ccc(-c2csc(-c3ccncc3)n2)cc1 noted as 0.958

Lab book: normalized growth of Cc1ccc2nc(-c3ccc4c(c3)OCCO4)cn2c1 noted as 0.969

Lab book: normalized growth of OC(COc1ccc(F)cc1)(c1ccc(Cl)cc1)c1ccc(Cl)cc1 noted as 0.939

Lab book: normalized growth of CC(C)(C)c1cc(C(=O)Nc2ccc3c(c2)OCO3)n(Cc2ccc(F)cc2)n1 noted as 0.977

Lab book: normalized growth of N/C(Cc1cccc2ccccc12)=N/OC(=O)c1ccc(Cl)cc1 noted as 0.935
